Origin of values: PubChem BioAssay AID720493

Experiment: EDANS-DABCYL fluorescence interference, concentration series, dose response, artefact control for kallikrein-7 zymogen activator project, biochemical, fluorescence intensity, triplicate (AID 720493);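 note: intact quenched peptide substrate alone read at 355 nm excitation and 520 nm emission; signal is fluorescence gain from T0 to T4 after four hours at room temperature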
Settings: EDANS-DABCYL peptide fluorescence interference, no enzyme
This is one part of the list. Calls of active or inactive are those of the source.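 Rule for the calls: active = compounds that raise the fluorescence signal in this interference counterscreen, with EC50 at or below 10 µM; inactive = the rest.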
property: EC50

O=C(OC1CCOC1=O)c1ccc(-c2nc3ccccc3s2)s1 (stereo not given): > 69.5 µM (inactive)
COC(=O)C1=NN(c2ccccc2)C2C(=O)N(c3ccccc3OC)C(=O)C12 (stereo not given): > 69.5 µM (inactive)
O=C(Oc1c(-c2ccco2)oc2ccccc2c1=O)c1cccnc1: 21.2 µM (inactive)
CN(C(=O)c1cc2c(=O)n3ccccc3nc2s1)C1CCCCC1: > 69.5 µM (inactive)
O=c1c(-c2ccccc2)coc2c(CN3CCOCC3)c(O)ccc12: > 69.5 µM (inactive)
